Overview of reported log10 IC50 across a group of molecules:
molecular target: HDM2 (Homo sapiens); construct: Thioredoxin (N); made in house; host or cells: E. coli strain BL21(DE3)Rosetta; assay: FRET assay (HDM2 inhibition; method not described in this part); type: binding; details: Table 2
Sequence (Q00987 17-125): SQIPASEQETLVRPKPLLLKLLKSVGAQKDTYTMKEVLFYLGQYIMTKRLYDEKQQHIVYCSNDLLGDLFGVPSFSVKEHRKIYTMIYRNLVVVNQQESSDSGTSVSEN
RECORDED ENDPOINT: log10 IC50 (log10 of the value in nM)

{"MOLECULE": "C[C@@H](Nc1nc(C(=O)O)nc2nc(-c3ccc4ncccc4c3)n(Cc3ccc(C(F)(F)F)cc3)c12)C1CC1 [Example 2.69]", "log10 IC50": 2.47}
{"MOLECULE": "C[C@@H](Nc1nc(C(=O)O)nc2nc(-c3cc(Cl)ccc3Cl)n(Cc3ccc(C(F)(F)F)cc3)c12)C1CCC1 [Example 2.63]", "log10 IC50": 1.04}
{"MOLECULE": "C[C@@H](Nc1nc(C(=O)O)nc2nc(C3CCCCC3)n(Cc3ccc(C(F)(F)F)cc3)c12)C1CCC1 [Example 2.4]", "log10 IC50": 1.06}
{"MOLECULE": "CCc1cccc(-c2nc3nc(C(=O)O)nc(N[C@H](C)C4CCC4)c3n2Cc2ccc(C(F)(F)F)cc2)c1 [Example 2.23]", "log10 IC50": 1.22}
{"MOLECULE": "C[C@@H](Nc1nc(C(=O)O)nc2nc(-c3ccc(OC(F)(F)F)cc3)n(Cc3ccc(C(F)(F)F)cc3)c12)C1CC1 [Example 2.27]", "log10 IC50": 3.06}
{"MOLECULE": "CCc1ccc(C)cc1-c1nc2nc(C(=O)O)nc(N[C@H](C)C3CCC3)c2n1Cc1ccc(C(F)(F)F)cc1 [Example 2.82]", "log10 IC50": 1.13}
{"MOLECULE": "C[C@@H](Nc1nc(C(=O)O)nc2nc(-c3cccc(F)c3F)n(Cc3ccc(C(F)(F)F)cc3)c12)C1CC1 [Example 2.73]", "log10 IC50": 2.05}
{"MOLECULE": "Cc1ccccc1-c1nc2nc(C(=O)O)nc(N[C@H](C)C3CC3)c2n1Cc1ccc(C(F)(F)F)cc1 [Example 2.30]", "log10 IC50": 2.15}
{"MOLECULE": "C[C@@H](Nc1nc(C(=O)O)nc2nc(-c3ccc(C(C)(C)C)cc3)n(Cc3ccc(C(F)(F)F)cc3)c12)C1CC1 [Example 2.32]", "log10 IC50": 3.29}
{"MOLECULE": "C[C@@H](Nc1nc(C(=O)O)nc2nc(-c3ccc(Br)cc3F)n(Cc3ccc(C(F)(F)F)cc3)c12)C1CC1 [Example 2.75]", "log10 IC50": 2.31}
{"MOLECULE": "C[C@@H](Nc1nc(C(=O)O)nc2nc(-c3cccc(C(C)(C)C)c3)n(Cc3ccc(C(F)(F)F)cc3)c12)C1CCC1 [Example 2.25]", "log10 IC50": 1.77}
{"MOLECULE": "Cc1cccc(-c2nc3nc(C(=O)O)nc(N[C@H](C)C4CC4)c3n2Cc2ccc(C(F)(F)F)cc2)c1F [Example 2.65]", "log10 IC50": 2.26}
{"MOLECULE": "CCOc1ccc(-c2nc3nc(C(=O)O)nc(N[C@H](C)C4CC4)c3n2Cc2ccc(C(F)(F)F)cc2)cn1 [Example 2.72]", "log10 IC50": 2.79}
{"MOLECULE": "C[C@@H](Nc1nc(C(=O)O)nc2nc(-c3ccccc3OC(F)(F)F)n(Cc3ccc(C(F)(F)F)cc3)c12)C1CC1 [Example 2.34]", "log10 IC50": 1.32}
